// data source = ChEMBL document CHEMBL5325448

The molecules listed here are annotated with their IC50.
- ASSAY SYSTEM: Epidermal growth factor receptor (Homo sapiens, UniProt P00533, C797S/EX19DEL/T790M)
- Sequence (P00533 whole entry, looked up, stated change not applied): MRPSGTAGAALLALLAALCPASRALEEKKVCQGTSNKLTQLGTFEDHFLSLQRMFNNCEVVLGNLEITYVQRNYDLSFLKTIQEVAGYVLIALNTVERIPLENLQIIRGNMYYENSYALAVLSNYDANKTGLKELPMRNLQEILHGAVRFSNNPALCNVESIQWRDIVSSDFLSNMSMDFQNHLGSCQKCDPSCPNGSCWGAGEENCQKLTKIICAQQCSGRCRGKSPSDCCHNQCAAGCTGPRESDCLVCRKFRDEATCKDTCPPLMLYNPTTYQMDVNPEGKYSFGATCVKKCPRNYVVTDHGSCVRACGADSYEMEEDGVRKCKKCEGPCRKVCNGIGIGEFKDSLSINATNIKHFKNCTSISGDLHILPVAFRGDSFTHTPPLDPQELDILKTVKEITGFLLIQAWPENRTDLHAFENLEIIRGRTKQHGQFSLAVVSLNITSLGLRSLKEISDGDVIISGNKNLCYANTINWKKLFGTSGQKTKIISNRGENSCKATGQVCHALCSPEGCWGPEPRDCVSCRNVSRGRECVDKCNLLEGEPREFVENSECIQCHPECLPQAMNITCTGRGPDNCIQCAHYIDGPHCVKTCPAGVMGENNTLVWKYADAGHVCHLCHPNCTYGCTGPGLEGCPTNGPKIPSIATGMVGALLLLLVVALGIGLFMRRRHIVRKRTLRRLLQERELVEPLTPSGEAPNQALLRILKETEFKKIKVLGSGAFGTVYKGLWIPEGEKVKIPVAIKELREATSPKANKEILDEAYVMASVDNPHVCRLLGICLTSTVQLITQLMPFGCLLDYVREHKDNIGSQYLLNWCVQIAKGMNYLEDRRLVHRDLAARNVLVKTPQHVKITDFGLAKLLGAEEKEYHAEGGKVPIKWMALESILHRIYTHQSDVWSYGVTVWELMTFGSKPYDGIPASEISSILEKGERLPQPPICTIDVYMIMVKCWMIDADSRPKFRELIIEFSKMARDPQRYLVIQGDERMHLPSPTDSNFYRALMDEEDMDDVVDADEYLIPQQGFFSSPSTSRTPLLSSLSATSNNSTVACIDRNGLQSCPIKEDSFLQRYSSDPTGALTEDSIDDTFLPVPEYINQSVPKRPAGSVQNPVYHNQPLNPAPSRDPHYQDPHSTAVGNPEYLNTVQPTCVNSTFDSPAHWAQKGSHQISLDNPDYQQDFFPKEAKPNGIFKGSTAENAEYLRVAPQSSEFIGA
- ASSAY EXPLANATION: Inhibition of EGFR Del19/T790M/C797S triple mutant (unknown origin) using TK as substrate incubated for 120 mins in presence of ATP by HTRF assay
State the answer as a number, implicitly in nM.

>>> print(df.to_string())
                                smiles_text                              assay_system  recorded_endpoint  recorded_number
0  COc1cc(N2CCC(N3CC(N(C)C)C3)CC2)c(C)cc1Nc1ncc(SC)c(Nc2ccc3nccnc3c2P(C)(C)=O)n1  Epidermal growth factor receptor (Homo sapiens, UniProt P00533, C797S/EX19DEL/T790M)               IC50             0.39
1  COc1cc(N2CCC(N3CCN(C(C)=O)CC3)CC2)c(C)cc1Nc1ncc(Br)c(Nc2ccc3nccnc3c2P(C)(C)=O)n1  Epidermal growth factor receptor (Homo sapiens, UniProt P00533, C797S/EX19DEL/T790M)               IC50             0.07
2  COCC1(C)CN(C2CCN(c3cc(OC)c(Nc4ncc(Br)c(Nc5ccc6nccnc6c5P(C)(C)=O)n4)cc3C)CC2)C1  Epidermal growth factor receptor (Homo sapiens, UniProt P00533, C797S/EX19DEL/T790M)               IC50              0.3
3  COc1cc(N2CCC(N3CC(N(C)C)C3)CC2)c(C)cc1Nc1ncc(Cl)c(Nc2ccc3nccnc3c2P(C)(C)=O)n1  Epidermal growth factor receptor (Homo sapiens, UniProt P00533, C797S/EX19DEL/T790M)               IC50             0.25

Input line: Item COc1cc(N2CCC(N3CC(CO)C3)CC2)c(C)cc1Nc1ncc(Br)c(Nc2ccc3nccnc3c2P(C)(C)=O)n1 has what recorded IC50?
Output line: 0.57
